These data points were gathered from patent EP1247803A2.

assay.system: FLK-1 receptor (Mus musculus, UniProt P35918)
Construct: expressed in transfected cells; host or cells: NIH3T3 C7#3
Sequence (P35918 20-1345): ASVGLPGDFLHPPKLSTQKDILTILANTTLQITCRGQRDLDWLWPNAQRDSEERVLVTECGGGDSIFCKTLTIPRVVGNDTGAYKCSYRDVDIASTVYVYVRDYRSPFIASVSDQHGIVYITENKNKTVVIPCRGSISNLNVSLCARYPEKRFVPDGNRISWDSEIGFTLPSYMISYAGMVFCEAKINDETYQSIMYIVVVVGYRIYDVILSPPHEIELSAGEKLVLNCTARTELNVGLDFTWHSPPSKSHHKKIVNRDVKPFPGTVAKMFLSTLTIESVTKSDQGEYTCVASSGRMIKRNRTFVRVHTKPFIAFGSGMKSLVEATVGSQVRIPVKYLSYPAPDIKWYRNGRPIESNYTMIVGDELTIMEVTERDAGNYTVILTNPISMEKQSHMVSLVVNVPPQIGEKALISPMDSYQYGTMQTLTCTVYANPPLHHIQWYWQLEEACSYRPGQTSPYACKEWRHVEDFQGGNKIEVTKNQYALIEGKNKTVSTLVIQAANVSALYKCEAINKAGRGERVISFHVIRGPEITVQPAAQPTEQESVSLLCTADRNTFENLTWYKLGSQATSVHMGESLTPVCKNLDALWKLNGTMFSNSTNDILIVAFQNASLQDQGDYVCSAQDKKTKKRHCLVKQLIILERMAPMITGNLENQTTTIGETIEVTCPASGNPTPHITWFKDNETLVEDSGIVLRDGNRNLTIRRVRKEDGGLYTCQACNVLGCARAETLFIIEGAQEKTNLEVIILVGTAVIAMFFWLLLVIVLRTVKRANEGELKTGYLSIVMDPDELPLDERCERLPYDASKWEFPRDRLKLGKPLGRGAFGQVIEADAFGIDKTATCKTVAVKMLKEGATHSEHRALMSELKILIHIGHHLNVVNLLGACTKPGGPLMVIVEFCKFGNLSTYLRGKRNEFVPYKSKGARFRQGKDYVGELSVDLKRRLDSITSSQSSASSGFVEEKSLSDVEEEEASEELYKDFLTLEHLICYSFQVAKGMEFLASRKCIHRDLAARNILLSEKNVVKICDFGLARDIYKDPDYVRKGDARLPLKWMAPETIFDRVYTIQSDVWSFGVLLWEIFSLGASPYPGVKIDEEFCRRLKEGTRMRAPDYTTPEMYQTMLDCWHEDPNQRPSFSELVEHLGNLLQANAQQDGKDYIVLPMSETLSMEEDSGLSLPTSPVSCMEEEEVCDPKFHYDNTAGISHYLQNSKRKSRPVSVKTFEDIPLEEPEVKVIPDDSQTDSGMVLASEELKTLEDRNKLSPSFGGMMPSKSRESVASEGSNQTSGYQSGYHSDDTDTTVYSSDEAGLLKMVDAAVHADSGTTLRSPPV
protocol.details: FLK-1 ELISA (kinase activity of the FLK-1 receptor in FLK-1/NIH3T3 cells, VEGF stimulated)
Assay type: cell-based
experimental.endpoint: Fik Kinase %Inhibition (%)
Answers are plain numbers, in %.

Please supply Fik Kinase %Inhibition for each of the following items, keeping them in order.
1. O=C1Nc2ccc(S(=O)(=O)N3CCOCC3)cc2C1=Cc1cc(Cl)ccc1O
2. Cc1c(Br)ccc2c1C(=Cc1cc([N+](=O)[O-])ccc1O)C(=O)N2
3. COc1cc(O)ccc1C=C1C(=O)Nc2ccc(CCCl)cc21
4. O=C1Nc2ccc(S(=O)(=O)Nc3ccc(C(F)(F)F)cc3)cc2C1=Cc1ccccc1Sc1ccc(Cl)cc1
5. CNS(=O)(=O)c1ccc2c(c1)C(=Cc1ccc(Br)o1)C(=O)N2
6. COc1ccc2[nH]cc(C=C3C(=O)Nc4ccc(CCCl)cc43)c2c1
7. CNS(=O)(=O)c1ccc2c(c1)C(=Cc1cc(Cl)cc(Cl)c1O)C(=O)N2

Return:
1: -2.6; 2: -7.6; 3: 2.6; 4: 17.1; 5: 8.2; 6: 13.3; 7: 17.4

Hey, can you go through the list below and give me Fik Kinase %Inhibition for every item?
1. O=C1Nc2c(Br)cc(Br)cc2C1=Cc1ccc([N+](=O)[O-])cc1
2. CNS(=O)(=O)c1ccc2c(c1)C(=Cc1cc3ccccc3o1)C(=O)N2

Return:
1: -6.4; 2: -2.6

====

Field: Biochem EGFR %Inhibition. Provide a value for each of the molecules that follow.
assay.system: EGFR (Homo sapiens, UniProt P00533)
Construct: Add 7 ug A431 cell lysate per well (EGFR source); endogenous in cells; host or cells: A431
Sequence (P00533 25-1210): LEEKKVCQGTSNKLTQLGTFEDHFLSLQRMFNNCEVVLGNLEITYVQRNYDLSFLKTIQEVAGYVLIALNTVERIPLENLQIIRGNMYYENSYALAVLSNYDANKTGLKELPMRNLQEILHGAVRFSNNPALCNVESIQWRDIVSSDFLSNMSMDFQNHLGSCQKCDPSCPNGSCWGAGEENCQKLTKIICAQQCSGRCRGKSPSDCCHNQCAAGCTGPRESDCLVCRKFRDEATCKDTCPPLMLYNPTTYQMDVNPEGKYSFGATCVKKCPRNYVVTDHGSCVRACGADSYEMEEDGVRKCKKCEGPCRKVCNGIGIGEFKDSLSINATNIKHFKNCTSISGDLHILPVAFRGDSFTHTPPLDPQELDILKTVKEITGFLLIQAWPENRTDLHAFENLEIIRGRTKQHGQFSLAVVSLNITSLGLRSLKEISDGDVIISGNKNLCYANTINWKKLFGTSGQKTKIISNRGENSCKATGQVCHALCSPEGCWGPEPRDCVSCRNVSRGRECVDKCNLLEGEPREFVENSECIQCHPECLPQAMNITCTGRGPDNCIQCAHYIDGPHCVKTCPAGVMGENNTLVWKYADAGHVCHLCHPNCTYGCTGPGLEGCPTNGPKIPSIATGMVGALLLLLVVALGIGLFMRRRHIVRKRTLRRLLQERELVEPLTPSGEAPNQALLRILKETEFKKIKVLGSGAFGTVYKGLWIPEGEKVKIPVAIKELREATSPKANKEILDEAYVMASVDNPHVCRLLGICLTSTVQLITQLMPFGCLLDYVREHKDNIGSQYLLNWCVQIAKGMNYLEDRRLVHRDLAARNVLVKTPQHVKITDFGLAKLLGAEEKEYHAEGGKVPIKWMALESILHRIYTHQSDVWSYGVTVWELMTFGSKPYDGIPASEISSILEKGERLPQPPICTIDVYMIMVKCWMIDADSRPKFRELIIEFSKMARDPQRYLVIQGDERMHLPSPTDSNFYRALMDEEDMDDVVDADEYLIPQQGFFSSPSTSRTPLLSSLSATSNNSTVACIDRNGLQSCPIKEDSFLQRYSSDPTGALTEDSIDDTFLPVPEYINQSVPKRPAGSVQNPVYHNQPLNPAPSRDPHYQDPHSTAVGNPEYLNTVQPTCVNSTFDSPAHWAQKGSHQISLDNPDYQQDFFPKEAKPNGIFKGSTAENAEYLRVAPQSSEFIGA
protocol.details: EGFR ELISA assay (in vitro kinase activity, EGFR captured from A431 cell lysate)
Type: biochemical
Design: concentration or dose not given beside the values
Answers are plain numbers, in %.

CCc1ccc(C=C2C(=O)Nc3ccc(S(=O)(=O)NC)cc32)s1 [10726/D10] ... -6.5
COc1ccc(OC)c(C=C2C(=O)Nc3c(Br)cc(Br)cc32)c1 [10728/A02] ... 9.2
Cc1csc2sc(C=C3C(=O)Nc4c(Br)cc(Br)cc43)c(C)c12 [10724/A11] ... -16.6
CCOc1cccc(C=C2C(=O)Nc3ccc(S(=O)(=O)NC)cc32)c1O [10734/D02] ... 5.2
Cc1cc(C=C2C(=O)Nc3ccc(Br)c(C)c32)ccc1O [10723/C06] ... -4.5

Required: Biochem EGFR %Inhibition, one value per molecule below.
1. O=C1Nc2ccc(F)cc2C1=C1C(=O)Nc2ccc(S(=O)(=O)N3CCOCC3)cc21 [10726/F08]
2. O=C1Nc2ccc(S(=O)(=O)N3CCOCC3)cc2C1=Cc1c[nH]c2ccccc12 [10717/F06]
3. O=C1Nc2ccc(S(=O)(=O)Nc3ccc(C(F)(F)F)cc3)cc2C1=Cc1ccccc1Br [10723/E07]
4. Cc1cc(C=C2C(=O)Nc3ccc(Br)c(C)c32)oc1C [10730/C11]

Return:
-21.5
-22.8
38.1
38.4

====

assay.system: EGFR (Homo sapiens, UniProt P00533)
Construct: Add 7 ug A431 cell lysate per well (EGFR source); endogenous in cells; host or cells: A431
protocol.details: EGFR ELISA assay (in vitro kinase activity, EGFR captured from A431 cell lysate)
Type: biochemical
Parameters: concentration or dose not given beside the values
experimental.endpoint: Biochem EGFR %Inhibition (%)
Numbers only, in %.

CCc1c(C)[nH]c(C=C2C(=O)Nc3ccc(S(=O)(=O)Nc4ccc(C(F)(F)F)cc4)cc32)c1C [10719/E05] ... 21.2

// input: 2 compounds below; output: Biochem EGFR %Inhibition for each
1. O=C1Nc2ccc(I)cc2C1=Cc1ccc(-c2ccccc2Cl)o1 [10730/B07]
2. O=C1Nc2ccc(I)cc2C1=Cc1cc(O)ccc1O [10727/B10]

Return:
[57.1, 94.0]

Dear colleague, could you please provide Biochem EGFR %Inhibition for the compounds listed below?
1. Cc1c(Br)ccc2c1C(=Cc1ccc(Br)s1)C(=O)N2 [10734/C11]
2. CSc1ccc(C=C2C(=O)Nc3ccc(Br)c(C)c32)s1 [10720/C07]
3. COc1ccc(Br)c(C=C2C(=O)Nc3c(Br)cc(Br)cc32)c1O [10725/A03]
4. O=C1Nc2ccc(CCCl)cc2C1=Cc1cccc(Br)c1 [10723/G10]
5. O=C1Nc2ccc(I)cc2C1=Cc1ccc(F)cc1Cl [10719/B09]
6. COc1cc(OC)c(OC)cc1C=C1C(=O)Nc2ccc(S(=O)(=O)Nc3ccc(C(F)(F)F)cc3)cc21 [10730/E03]

Return:
18.0
-25.4
-38.2
-4.1
-17.7
65.3
